Target: T1, Cyk3, Q07533
T1 sequence (Q07533 1-83, looked up): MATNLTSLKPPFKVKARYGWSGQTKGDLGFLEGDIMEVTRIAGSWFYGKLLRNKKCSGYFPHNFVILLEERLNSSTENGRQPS
Experiment: SPOT array
Conditions: median of control spots 1451
REPORTED METRIC: SPOT intensity

Look over these answered cases.
>  <BINDER>
RLSFFFPLDPAYIRN

>  <EXPERIMENTAL RESULT>
1

$$$$
>  <BINDER>
GDHPKGPPPPPPPPD

>  <EXPERIMENTAL RESULT>
0

$$$$
>  <BINDER>
SGVRLPAPPPPPRRG

>  <EXPERIMENTAL RESULT>
1

$$$$
>  <BINDER>
SKSRLLIELPEGFFT

>  <EXPERIMENTAL RESULT>
0

$$$$

(I) GKFIPSRPAPKPPSS
(II) RSVKRPRRAPRPVVS
Of the two listed items, which has the higher SPOT intensity? First: I Second: II // respond with label for picked entry II
(II: 12, I: 2)
